target: CRBN protein (Homo sapiens, UniProt Q96SW2); test: Binding activity to E3 ubiquitin ligase CRBN (HTRF competitive binding kit, Thalidomide-Red); conditions: competition with XL665-labeled thalidomide for GST-tagged CRBN protein, HTRF, 3 hours at room temperature; read-out: IC50
pIC50: −log10 of the molar value.
In this section we review reported pIC50 values for a set of molecules.

>  <molecule>
O=C1CCC(Nc2ccc3c(c2)N2CCNC[C@@H]2CCO3)C(=O)N1 (stereo partly drawn)

>  <pIC50>
4.68

$$$$
>  <molecule>
O=C1CCC(Nc2ccc3c(c2)OC[C@@H]2CNCCN32)C(=O)N1 (stereo partly drawn)

>  <pIC50>
5.67

$$$$
>  <molecule>
O=C1CCC(Nc2ccc3c(c2)N2CCNC[C@@H]2CO3)C(=O)N1 (stereo partly drawn)

>  <pIC50>
4.89

$$$$
>  <molecule>
O=C1CCC(Nc2ccc3c(c2)CC2(CCNCC2)O3)C(=O)N1 (stereo not drawn)

>  <pIC50>
4.78

$$$$
>  <molecule>
O=C1CC[C@H](NC(=O)c2cc3c(cc2F)N2CCNC[C@H]2CO3)C(=O)N1

>  <pIC50>
4.57

$$$$
>  <molecule>
CN(c1ccc2c(c1)COC[C@H]1CNCCN21)C1CCC(=O)NC1=O (stereo partly drawn)

>  <pIC50>
5.73

$$$$
>  <molecule>
O=C1CCC(Nc2ccc3c(c2)COC[C@H]2CNCCN32)C(=O)N1 (stereo partly drawn)

>  <pIC50>
5.08

$$$$
>  <molecule>
O=C1CCC(Nc2ccc3c(c2)OCC2(CCNCC2)C3)C(=O)N1 (stereo not drawn)

>  <pIC50>
5.47

$$$$
>  <molecule>
O=C1CCC(n2c(=O)n3c4c(cccc42)NCC3)C(=O)N1 (stereo not drawn)

>  <pIC50>
6.68

$$$$

---

tested on: VCaP cells; experiment: Inhibition of VCaP cell proliferation (WST-8); type: cell-based; details: Homo sapiens, 168 hours
In this section we review reported IC50 values for a set of molecules.

>  <molecule>
COc1cc(O[C@H]2C(C)(C)[C@H](NC(=O)c3ccc(N4CCC(F)(CN5CCC6(CC5)COc5c6ccc(C(=O)N[C@H]6CCC(=O)NC6=O)c5F)CC4)cc3)C2(C)C)ccc1C#N

>  <IC50 [µM]>
0.49

$$$$
>  <molecule>
COc1cc(O[C@H]2C(C)(C)[C@H](NC(=O)c3ccc(N4CCC(F)(CN5CC6(CCC7(CC6)COc6c7ccc7c6CN(C6CCC(=O)NC6=O)C7=O)C5)CC4)cc3)C2(C)C)ccc1C#N (relative stereo)

>  <IC50 [µM]>
0.0017

$$$$
>  <molecule>
COc1cc(O[C@H]2C(C)(C)[C@H](NC(=O)c3ccc(N4CCC(F)(CN5CCC6(CCc7cc(C(=O)N[C@H]8CCC(=O)NC8=O)c(F)cc7O6)CC5)CC4)cc3)C2(C)C)ccc1C#N

>  <IC50 [µM]>
4.24

$$$$

---

Molecular target: ERα (Homo sapiens, UniProt P03372)
Sequence (P03372 1-595): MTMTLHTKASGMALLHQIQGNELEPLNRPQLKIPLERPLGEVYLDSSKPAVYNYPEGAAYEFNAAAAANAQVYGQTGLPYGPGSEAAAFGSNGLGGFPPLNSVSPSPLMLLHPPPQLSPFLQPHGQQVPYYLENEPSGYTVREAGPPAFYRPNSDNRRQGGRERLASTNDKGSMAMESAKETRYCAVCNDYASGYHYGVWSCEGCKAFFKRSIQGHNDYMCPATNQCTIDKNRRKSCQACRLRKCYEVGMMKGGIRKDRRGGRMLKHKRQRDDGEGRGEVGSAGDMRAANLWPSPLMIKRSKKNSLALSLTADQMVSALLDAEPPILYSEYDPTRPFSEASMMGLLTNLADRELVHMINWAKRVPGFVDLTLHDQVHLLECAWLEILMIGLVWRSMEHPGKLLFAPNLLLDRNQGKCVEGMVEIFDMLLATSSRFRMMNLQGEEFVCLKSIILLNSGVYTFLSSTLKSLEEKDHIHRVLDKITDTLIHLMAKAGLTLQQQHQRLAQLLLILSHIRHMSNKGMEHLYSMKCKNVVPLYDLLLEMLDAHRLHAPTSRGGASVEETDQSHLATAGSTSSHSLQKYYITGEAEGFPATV
Assay: ERα degradation in T-47D cells (Western blot)
Type: cell-based
Details: 1nM, 4 hours
Label rule, in plain words: Degradation rate of ERα in T-47D cells (%) of 40% and up is Y, under 40% is N.

>  <compound>
Cn1c(=O)n(C2CCC(=O)NC2=O)c2ccc3c(c21)C1(CCN(C[C@H]2CC[C@@H](OC4CCN(c5ccc([C@@H]6c7ccc(O)cc7CC[C@@H]6c6ccccc6)cc5)CC4)CC2)CC1)CO3 (some centres unmarked)

>  <cat>
N

$$$$
>  <compound>
C[C@@H]1Cc2cc(O)ccc2C(c2c(F)cc(N3CCC(C(=O)N4CCC(N5CCC6(CC5)COc5c6ccc6c5n(C)c(=O)n6C5CCC(=O)NC5=O)CC4)CC3)cc2F)N1CC(F)F (some centres unmarked)

>  <cat>
Y

$$$$
>  <compound>
COc1cc2c(cc1C(=O)N[C@H]1CCC(=O)NC1=O)OCC[C@H]1CN(CC3CCC(OC4CCN(c5ccc([C@@H]6c7ccc(O)cc7CC[C@@H]6c6ccccc6)cc5)CC4)CC3)CCN21 (some centres unmarked)

>  <cat>
N

$$$$
>  <compound>
O=C1CC[C@H](NC(=O)c2ccc3c(c2F)OCC32CCN(C3CCC4(CC3)CCN(c3ccc([C@@H]5c6ccc(O)cc6CC[C@@H]5c5ccccc5)cc3)CC4)CC2)C(=O)N1

>  <cat>
N

$$$$

---

Biological target: AR protein (Homo sapiens, UniProt P10275, T878A)
Construct: host or cells: LNCaP FGC
Assay: AR protein degradation in LNCaP cells (Western blot)
Format: cell-based
Conditions: 100 nM, 8 hours
Protocol: At the same time, the corresponding solvent control was set and cultured for 8 hours. After 8 hours of culture, the culture medium was removed, the cells were washed with PBS, and RIPA lysis buffer containing 1% Protease Inhibitor Cocktail was added. After lysis and centrifugation, the total protein extract was obtained, and the protein concentration in the extract was detected by BCA method. […] GAPDH protein bands were also detected for each sample as the reference. […]
Label rule, in plain words: Degradation of AR protein in LNCaP cells, 100 nM (%) of 70% and up is met, under 70% is not met.

>  <compound>
C[C@H]1CC2(CCN(c3ccc(C(=O)N4CCC(CN5CCN6c7ccc(C(=O)N[C@H]8CCC(=O)NC8=O)cc7OC[C@H]6C5)CC4)cc3)CC2)CN1c1ccc(C#N)c(Cl)c1

>  <cat>
met

$$$$
>  <compound>
COc1cc(O[C@H]2C(C)(C)[C@H](NC(=O)c3ccc(N4CCC(CN5CCN6c7ccc(C(=O)N[C@H]8CCC(=O)NC8=O)cc7OC[C@@H]6C5)CC4)cc3)C2(C)C)ccc1C#N

>  <cat>
met

$$$$
>  <compound>
COc1cc(O[C@H]2C(C)(C)[C@H](NC(=O)c3ccc(N4CCC(C)(CN5CCC6(CC5)COc5cc7c(cc56)n(C)c(=O)n7C5CCC(=O)NC5=O)CC4)cc3)C2(C)C)ccc1C#N (relative stereo)

>  <cat>
not met

$$$$
>  <compound>
COc1cc(O[C@H]2C(C)(C)[C@H](NC(=O)c3ccc(N4CCC(CN5CCC6(CC5)COc5c6ccc(C(=O)N[C@H]6CCC(=O)NC6=O)c5F)(OC)CC4)cc3)C2(C)C)ccc1C#N

>  <cat>
not met

$$$$
>  <compound>
COc1cc(O[C@H]2C(C)(C)[C@H](NC(=O)c3ccc(N4CCC(CN5CCC6(CCc7cc(F)c(C(=O)N[C@H]8CCC(=O)NC8=O)cc7O6)CC5)CC4)cc3)C2(C)C)ccc1C#N

>  <cat>
not met

$$$$
>  <compound>
COc1cc(O[C@H]2C(C)(C)[C@H](NC(=O)c3ccc(N4CCC(CN5CCC6(CCc7cc(F)c(C(=O)N[C@H]8CCC(=O)NC8=O)cc7O6)CC5)(OC)CC4)cc3)C2(C)C)ccc1C#N

>  <cat>
not met

$$$$
>  <compound>
COc1cc(O[C@H]2C(C)(C)[C@H](NC(=O)c3ccc(N4CCC(F)(CN5CCC6(CCc7cc(F)c(C(=O)N[C@H]8CCC(=O)NC8=O)cc7O6)CC5)CC4)cc3)C2(C)C)ccc1C#N

>  <cat>
not met

$$$$
>  <compound>
CC1(C)[C@H](NC(=O)c2ccc(N3CCC(CN4CCC5(CCc6cc(C(=O)N[C@H]7CCC(=O)NC7=O)c(F)cc6O5)CC4)CC3)nc2)C(C)(C)[C@H]1Oc1ccc(C#N)c(C(F)(F)F)c1

>  <cat>
met

$$$$
>  <compound>
COc1cc(O[C@H]2C(C)(C)[C@H](NC(=O)c3ccc(N4CCC(F)(CN5CCC6(CCc7cc(C(=O)N[C@H]8CCC(=O)NC8=O)c(F)cc7O6)CC5)CC4)cc3)C2(C)C)ccc1C#N

>  <cat>
not met

$$$$
>  <compound>
COc1cc2c(cc1C(=O)N[C@H]1CCC(=O)NC1=O)CCC1(CCN(CC3CCN(c4ccc(N5CCC6(CC5)C[C@H](C)N(c5ccc(C#N)c(Cl)c5)C6)cc4)CC3)CC1)O2

>  <cat>
met

$$$$
